The entries below are paired with their reported FON (Fold Over Negative).
- study.target: T1, human TIGIT expressed on cells (human, UniProt Q495A1 22-244)
- T1 construct: whole, on cells; on Jurkat E6.1 cells transduced with human TIGIT, on Promega TIGIT Effector cells or on human primary T cells; the assay field says which; also called hTIGIT; Jurkat-hTIGIT
- T1 sequence (looked up): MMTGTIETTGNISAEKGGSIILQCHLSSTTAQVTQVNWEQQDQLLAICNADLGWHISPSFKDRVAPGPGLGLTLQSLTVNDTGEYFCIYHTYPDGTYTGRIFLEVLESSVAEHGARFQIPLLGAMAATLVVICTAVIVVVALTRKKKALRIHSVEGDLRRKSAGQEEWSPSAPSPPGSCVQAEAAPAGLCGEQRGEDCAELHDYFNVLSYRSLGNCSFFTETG
- test: flow cytometry, 100 nM Ab, Jurkat-hTIGIT vs untransfected
The answer is to be given in fold; state only the numeric part.

anti-TIGIT antibody clone 26521 (IgG) (antibody, V domains shown, parent clone) VH: QVQLVQSGAEVKKPGSSVKVSCKASGGTFSSYAISWVRQAPGQGLEWMGGIIPIFGTANYAQKFQGRVTITADESTSTAYMELSSLRSEDTAVYYCARLHLGSSAYYGMDVWGQGTTVTVSS VL: DIQMTQSPSSLSASVGDRVTITCRASQSISSYLNWYQQKPGKAPKLLIYAASSLQSGVPSRFSGSGSGTDFTLTISSLQPEDFATYYCQQRYVFPPTFGGGTKVEIK : 146

Given anti-TIGIT antibody clone 26493 (IgG) (antibody, V domains shown, parent clone; also called surrogate anti-TIGIT antagonistic antibody) VH: EVQLVESGGGLVQPGRSLRLSCAASGFTFGDYAMHWVRQAPGKGLEWVSGITWNSGSIGYADSVKGRFTISRDNAKNSLYLQMNSLRAEDTALYYCAKPVPKSRGLDVWGQGTMVTVSS VL: DIQLTQSPSSVSASVGDRVTITCRASQGISSWLAWYQQKPGKAPKLLIYGASSLQSGVPSRFSGSGSGTDFTLTISSLQPEDFATYYCQQAFYLPWTFGGGTKVEIK , state its recorded FON (Fold Over Negative).
80

Reference for the values: patent US20200407445A1
